# Assay Target: HDAC6 (Homo sapiens (Human), UniProt Q9UBN7)
# Sequence (Q9UBN7 whole entry, species assumed): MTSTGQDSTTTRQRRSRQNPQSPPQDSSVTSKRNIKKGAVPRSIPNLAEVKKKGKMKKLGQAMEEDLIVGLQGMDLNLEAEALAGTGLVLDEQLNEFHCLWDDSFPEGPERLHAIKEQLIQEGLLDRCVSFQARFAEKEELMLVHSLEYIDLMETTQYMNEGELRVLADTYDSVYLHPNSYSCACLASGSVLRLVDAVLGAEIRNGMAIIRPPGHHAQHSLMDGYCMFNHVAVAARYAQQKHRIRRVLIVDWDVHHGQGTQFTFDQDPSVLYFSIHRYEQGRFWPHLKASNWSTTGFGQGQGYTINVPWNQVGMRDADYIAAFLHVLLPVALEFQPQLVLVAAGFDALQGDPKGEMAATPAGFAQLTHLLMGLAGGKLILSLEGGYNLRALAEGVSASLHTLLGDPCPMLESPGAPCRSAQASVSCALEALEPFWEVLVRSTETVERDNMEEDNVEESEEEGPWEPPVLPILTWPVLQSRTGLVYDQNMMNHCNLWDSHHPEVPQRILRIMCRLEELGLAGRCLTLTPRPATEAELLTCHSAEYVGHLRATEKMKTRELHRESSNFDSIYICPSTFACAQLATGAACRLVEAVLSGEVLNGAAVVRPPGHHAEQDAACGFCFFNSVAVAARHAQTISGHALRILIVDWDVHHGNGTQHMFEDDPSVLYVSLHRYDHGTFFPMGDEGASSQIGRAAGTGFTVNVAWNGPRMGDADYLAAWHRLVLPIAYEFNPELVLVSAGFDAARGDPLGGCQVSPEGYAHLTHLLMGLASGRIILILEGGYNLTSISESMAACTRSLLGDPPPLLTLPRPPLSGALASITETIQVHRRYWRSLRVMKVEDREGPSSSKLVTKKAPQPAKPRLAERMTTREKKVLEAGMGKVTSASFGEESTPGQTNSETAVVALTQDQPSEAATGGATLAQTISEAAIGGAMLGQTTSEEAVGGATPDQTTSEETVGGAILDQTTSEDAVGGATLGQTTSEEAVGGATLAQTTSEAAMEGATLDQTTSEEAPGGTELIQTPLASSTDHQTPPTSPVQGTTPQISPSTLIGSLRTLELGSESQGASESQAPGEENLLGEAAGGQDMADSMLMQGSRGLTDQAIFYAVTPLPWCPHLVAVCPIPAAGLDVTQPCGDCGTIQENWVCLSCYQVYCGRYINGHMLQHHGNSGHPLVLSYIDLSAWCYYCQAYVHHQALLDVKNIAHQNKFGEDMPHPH
Answer each item with its documented IC50.
One number for each entry, in µM.

C[C@H]1C=C2C=C[C@H](C)[C@H](CC[C@@H]3C[C@@H](O[Si](C)(C)C(C)(C)C)CC(=O)O3)[C@H]2[C@@H](OC(=O)Nc2ccc(-c3cn(CCCCCCC(=O)NO)nn3)cc2)C1: 0.127
C#Cc1ccc(CNC(=O)O[C@H]2C[C@@H](C)C=C3C=C[C@H](C)[C@H](CC[C@@H]4C[C@@H](O[Si](C)(C)C(C)(C)C)CC(=O)O4)[C@H]32)cc1: 0.034
C#Cc1ccc(NC(=O)O[C@H]2C[C@@H](C)C=C3C=C[C@H](C)[C@H](CC[C@@H]4C[C@@H](O[Si](C)(C)C(C)(C)C)CC(=O)O4)[C@H]32)cc1: 0.127
C[C@H]1C=C2C=C[C@H](C)[C@H](CC[C@@H]3C[C@@H](O[Si](C)(C)C(C)(C)C)CC(=O)O3)[C@H]2[C@@H](OC(=O)NCc2ccc(-c3cn(CCCCCCC(=O)NO)nn3)cc2)C1: 0.034

Then this compound:
Input: Param item = C[C@H]1C=C2C=C[C@H](C)[C@H](CC[C@@H]3C[C@@H](O[Si](C)(C)C(C)(C)C)CC(=O)O3)[C@H]2[C@@H](OC(=O)NCCCCCCC(=O)NO)C1 [12a] ; retrieve measured IC50.
Output: 0.14

###

# Assay Target: HDAC2 (Homo sapiens (Human), UniProt Q92769)
# Sequence (Q92769 whole entry, species assumed): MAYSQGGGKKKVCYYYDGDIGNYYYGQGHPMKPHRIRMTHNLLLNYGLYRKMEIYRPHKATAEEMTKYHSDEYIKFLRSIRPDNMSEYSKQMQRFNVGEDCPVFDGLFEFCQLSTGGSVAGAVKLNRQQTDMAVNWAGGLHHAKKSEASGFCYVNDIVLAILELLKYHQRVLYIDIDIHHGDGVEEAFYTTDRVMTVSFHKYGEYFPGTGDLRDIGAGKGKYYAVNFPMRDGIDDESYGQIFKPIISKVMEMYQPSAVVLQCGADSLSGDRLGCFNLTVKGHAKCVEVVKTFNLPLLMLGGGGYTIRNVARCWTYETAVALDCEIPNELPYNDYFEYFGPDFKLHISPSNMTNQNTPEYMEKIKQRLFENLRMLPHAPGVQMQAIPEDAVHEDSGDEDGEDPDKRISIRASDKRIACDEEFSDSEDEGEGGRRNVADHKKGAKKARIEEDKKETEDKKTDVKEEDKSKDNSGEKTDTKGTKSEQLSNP
# Assay Details: HDAC fluorescent activity assay (HDAC2)
# Type: biochemical
I'd be grateful if you could share measured pIC50 for these entries.
Answers are plain numbers, as −log10 of the molar value.

C[C@H]1C=C2C=C[C@H](C)[C@H](CC[C@@H]3C[C@@H](O[Si](C)(C)C(C)(C)C)CC(=O)O3)[C@H]2[C@@H](OC(=O)Nc2ccc(-c3cn(CCCCCCC(=O)NO)nn3)cc2)C1: 6.33

Lab note: each compound below needs its pIC50 filled in.
1. C[C@H]1C=C2C=C[C@H](C)[C@H](CC[C@@H]3C[C@@H](O[Si](C)(C)C(C)(C)C)CC(=O)O3)[C@H]2[C@@H](OC(=O)NCc2ccc(-c3cn(CCCCCCC(=O)NO)nn3)cc2)C1
2. C#Cc1ccc(NC(=O)O[C@H]2C[C@@H](C)C=C3C=C[C@H](C)[C@H](CC[C@@H]4C[C@@H](O[Si](C)(C)C(C)(C)C)CC(=O)O4)[C@H]32)cc1

Output:
[6.05, 6.33]

###

# Assay Target: HDAC1 (Homo sapiens (Human))
# Sequence (Q13547 whole entry, species assumed): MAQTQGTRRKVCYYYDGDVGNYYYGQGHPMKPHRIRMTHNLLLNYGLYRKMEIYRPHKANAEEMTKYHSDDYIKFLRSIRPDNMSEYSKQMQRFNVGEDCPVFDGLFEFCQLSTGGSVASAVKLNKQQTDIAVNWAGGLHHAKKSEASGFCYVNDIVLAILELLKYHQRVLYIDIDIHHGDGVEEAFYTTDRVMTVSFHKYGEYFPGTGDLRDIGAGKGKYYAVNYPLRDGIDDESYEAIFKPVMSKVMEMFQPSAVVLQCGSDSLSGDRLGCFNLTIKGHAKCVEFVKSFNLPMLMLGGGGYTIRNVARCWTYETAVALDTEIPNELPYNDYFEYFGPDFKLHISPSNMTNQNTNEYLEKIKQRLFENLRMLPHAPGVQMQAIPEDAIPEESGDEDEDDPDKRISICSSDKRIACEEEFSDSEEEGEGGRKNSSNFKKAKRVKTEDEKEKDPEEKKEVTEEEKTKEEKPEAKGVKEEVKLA
# Assay Details: HDAC fluorescent activity assay (HDAC1)
# Type: biochemical
Outcome Measure: IC50

C[C@H]1C=C2C=C[C@H](C)[C@H](CC[C@@H]3C[C@@H](O[Si](C)(C)C(C)(C)C)CC(=O)O3)[C@H]2[C@@H](OC(=O)NCc2ccc(-c3cn(CCCCCCC(=O)NO)nn3)cc2)C1 [8b]: 125 nM
C#Cc1ccc(NC(=O)O[C@H]2C[C@@H](C)C=C3C=C[C@H](C)[C@H](CC[C@@H]4C[C@@H](O[Si](C)(C)C(C)(C)C)CC(=O)O4)[C@H]32)cc1 [6a]: 159 nM

Could you now look at the following molecule, please?
Input: Please report the recorded IC50 for C[C@H]1C=C2C=C[C@H](C)[C@H](CC[C@@H]3C[C@@H](O[Si](C)(C)C(C)(C)C)CC(=O)O3)[C@H]2[C@@H](OC(=O)Nc2ccc(-c3cn(CCCCCCC(=O)NO)nn3)cc2)C1 [8a] .
Output: 159 nM
